experimental target: Mannose-6-phosphate isomerase (Homo sapiens) (UniProt P34949)
Sequence (P34949 whole entry, looked up): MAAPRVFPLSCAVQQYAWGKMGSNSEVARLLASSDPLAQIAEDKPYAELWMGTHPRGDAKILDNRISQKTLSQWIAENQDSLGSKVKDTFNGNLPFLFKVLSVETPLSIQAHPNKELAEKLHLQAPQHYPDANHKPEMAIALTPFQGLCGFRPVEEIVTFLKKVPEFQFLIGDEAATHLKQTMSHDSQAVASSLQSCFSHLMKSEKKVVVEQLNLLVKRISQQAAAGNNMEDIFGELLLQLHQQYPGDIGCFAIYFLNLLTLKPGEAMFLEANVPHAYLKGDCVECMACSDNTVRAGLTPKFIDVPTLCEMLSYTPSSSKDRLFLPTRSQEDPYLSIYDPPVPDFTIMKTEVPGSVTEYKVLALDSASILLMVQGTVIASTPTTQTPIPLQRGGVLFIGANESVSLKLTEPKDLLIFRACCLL
protocol summary: inhibitors of human PMI, primary screen, biochemical, fluorescence intensity, coupled assay (AID 1209);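 also: plate controls were DMSO vehicle for no effect and wells lacking substrate for full effect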
stated conditions: purified PMI enzyme, at 20 µM, active compounds read high
Hit rate of the full screen: of about 190,000 compounds, about 810 (0.43%) were called active. Only a selection was taken, and actives are over-represented in it overall.
parameter measured: inhibition (%)
// units = %; emit number, no label

In the examples that follow, each entry is paired with its recorded inhibition.
[[record]]
compound = "Cc1c(Br)cc(C(=O)OC2CCN(C)CC2)c(C)c1C"
recorded_value = -1.2

[[record]]
compound = "CCOC(=O)c1cnc2ccc(C)cc2c1NCCO"
recorded_value = -0.9

[[record]]
compound = "O=C(O)CCCC(=O)Nc1cc([N+](=O)[O-])ccc1O"
recorded_value = 9.3

[[record]]
compound = "COC(=O)C(C)(C)ONC(=O)Nc1ccc(Br)cc1"
recorded_value = 17.3

[[record]]
compound = "Cc1cc(C(=O)Nc2ccc(N3CCOCC3)cc2)c2ccccc2n1"
recorded_value = 6.1

[[record]]
compound = "COc1cc(/C=C(\\C#N)c2nc3ccc(C)cc3[nH]2)cc([N+](=O)[O-])c1O"
recorded_value = 46.2

[[record]]
compound = "O=C(CSc1nc2cc([N+](=O)[O-])ccc2n1-c1ccccc1)NCc1ccc2c(c1)OCO2"
recorded_value = 23.9

[[record]]
compound = "O=C(Cc1ccccc1)NCc1ccccn1"
recorded_value = -4.7

[[record]]
compound = "O=S(=O)(NCCSCc1c(Cl)cccc1Cl)c1ccc2c(c1)OCCO2"
recorded_value = 2.4

[[record]]
compound = "CCOC(=O)c1nnc(-c2ccccc2)nc1Oc1ccc(Cl)cc1"
recorded_value = 2.2


Attention now shifts to the item below.
Sample CC(NC(=O)c1ccc(C(F)(F)F)cc1)C(c1ccccc1)N1CCOCC1 (stereo unspecified) — what was its inhibition? -8.2

###

experimental target: Mannose-6-phosphate isomerase (Homo sapiens) (UniProt P34949)
protocol summary: inhibitors of human PMI, primary screen, biochemical, fluorescence intensity, coupled assay (AID 1209)
stated conditions: purified PMI enzyme, at 20 µM, active compounds read high
About 810 (0.43%) of roughly 190,000 compounds were called active. The full list was thinned out, with actives kept by preference.
parameter measured: inhibition (%)
// units = %; emit number, no label

Consider the following illustrative entries.
[[record]]
compound = "O=c1cc(-c2ccc(O)cc2)oc2c([C@@H]3O[C@H](CO)[C@@H](O)[C@H](O)[C@H]3O)c(O)c([C@@H]3O[C@H](CO)[C@@H](O)[C@H](O)[C@H]3O)c(O)c12"
measure_unit = "%"
recorded_value = -0.7

[[record]]
compound = "CC(NC(=O)c1sc2ccccc2c1Cl)C1CCCO1 (centres undefined)"
measure_unit = "%"
recorded_value = 6.7

[[record]]
compound = "COC(=O)c1ccc(CN(C)S(=O)(=O)c2ccc(C)cc2)o1"
measure_unit = "%"
recorded_value = -1.6

[[record]]
compound = "O=c1cc(-c2ccc(O)c(O)c2)oc2c(C3O[C@H](CO)[C@@H](O)[C@H](O)[C@H]3O)c(O)cc(O)c12 (some centres undefined)"
measure_unit = "%"
recorded_value = 51.9

[[record]]
compound = "COc1cc(/C=c2\\sc3nc(=O)c(-c4ccccc4)nn3c2=O)ccc1OCCC(C)C"
measure_unit = "%"
recorded_value = -1.8


Recall the recorded inhibition for CCOC(=O)c1cc(C(C)=O)c(=O)[nH]c1C with Mannose-6-phosphate isomerase (Homo sapiens) (UniProt P34949) and state it. 2.7

Again, but for CCn1nc(CC(=O)Nc2nnc(CC(=O)N3CCCC3)s2)c2ccccc2c1=O 50.5

Same question for CC1(C)N=C(SCC(=O)Nc2ccc(Cl)cc2Cl)C(c2ccccc2)=N1 please. 8.5

Entry to check: CCn1nc(CC(=O)Nc2nnc(CC(=O)N3CCCCC3)s2)c2ccccc2c1=O 4.6

###

experimental target: Mannose-6-phosphate isomerase (Homo sapiens) (UniProt P34949)
protocol summary: inhibitors of human PMI, primary screen, biochemical, fluorescence intensity, coupled assay (AID 1209)
stated conditions: purified PMI enzyme, at 20 µM, active compounds read high
The campaign covered roughly 190,000 compounds. About 810 (0.43%) were called active. This excerpt belongs to a sample that is enriched for actives.
Recorded inhibition by entry

[[record]]
compound = "O=C(CCn1c(=O)sc2ccccc21)NCCC1=CCCCC1"
experimental_target = "Mannose-6-phosphate isomerase (Homo sapiens) (UniProt P34949)"
recorded_value = "3.6% (inactive)"


Form field - read-out: inhibition; system: Mannose-6-phosphate isomerase (Homo sapiens) (UniProt P34949); submitted item: Cc1ccc(C)c(C(=O)COC(=O)c2cc(Cl)nc3ccccc23)c1 12.6% (inactive)

For C=CCN1C(=O)C(C)(C)Nc2ccccc21 then? 6.9% (inactive)

Note, next up: O=C(CCN1C(=O)C2CC=C(Cl)CC2C1=O)NC1CCCCC1 (stereo unspecified) -7.8% (inactive)

Can you handle C/C(=C\C(=O)c1ccccc1)NNc1nc2ccccc2s1 next? -3.4% (inactive)

Please give the result for O=C(/C=C/c1ccc(N2CCCCC2)c([N+](=O)[O-])c1)c1ccc(S(=O)(=O)N2CCCC2)cc1 too. 0% (inactive)

###

experimental target: Mannose-6-phosphate isomerase (Homo sapiens)
protocol summary: inhibitors of human PMI, primary screen, biochemical, fluorescence intensity, coupled assay (AID 1209);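 also: plate controls were DMSO vehicle for no effect and wells lacking substrate for full effect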
stated conditions: purified PMI enzyme, at 20 µM, active compounds read high
The campaign covered roughly 190,000 compounds. About 810 (0.43%) were called active. The full list was thinned out, with actives kept by preference.
Recorded inhibition by entry

[[record]]
molecule = "CC(=O)/C(CN1CCCCC1)=N\\O"
recorded_value = "-6.1% (inactive)"


Which inhibition reading was recorded for the molecule NC(=S)Nc1cccc2cc3ccccc3cc12 ? -8.8% (inactive)

Param item: NC(=S)Nc1cc2ccccc2c2ccccc12 67.5% (active)

Note, next up: Clc1ccc(CSc2ncn[nH]2)cc1 7.1% (inactive)

###

experimental target: Mannose-6-phosphate isomerase (Homo sapiens)
protocol summary: inhibitors of human PMI, primary screen, biochemical, fluorescence intensity, coupled assay (AID 1209);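 also: plate controls were DMSO vehicle for no effect and wells lacking substrate for full effect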
stated conditions: purified PMI enzyme, at 20 µM
Hit rate of the full screen: of about 190,000 compounds, about 810 (0.43%) were called active. Rule as the data show it: active = inhibition above about 50%; inactive = the rest. The sample holds actives, similar compounds and a random draw of the others, so the mix is not that of the screen.
A correct response names exactly one class from TRUE for active, FALSE for inactive

So what was the verdict on CC(=O)C1=C(c2ccccc2)NC(=S)NC1c1ccc(O)c(O)c1 (stereo unspecified) in this test? FALSE

Subsequent entry: Cc1ccc2c(c1)/C(=N/N1C(=O)c3ccccc3C1=O)C(=O)N2 FALSE

Same again, this time with CC(=O)C1=C(c2ccccc2)NC(=O)NC1c1ccc(O)c(O)c1 (stereo unspecified) TRUE

What do you have for COc1ccccc1NS(=O)(=O)c1cc(NC(=O)C2CCCC2)ccc1N1CCOCC1 ? TRUE

Also CCOc1ncccc1C(=O)OCC(=O)c1cc(OC)ccc1OC , if possible. FALSE

Then this compound: O=C(Nc1ccc(N2CCOCC2)c2nonc12)C1CCCC1 TRUE

###

experimental target: Mannose-6-phosphate isomerase (Homo sapiens)
protocol summary: inhibitors of human PMI, primary screen, biochemical, fluorescence intensity, coupled assay (AID 1209);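 also: plate controls were DMSO vehicle for no effect and wells lacking substrate for full effect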
stated conditions: purified PMI enzyme, at 20 µM
Screen size: about 190,000 compounds; about 810 (0.43%) were called active. Rule as the data show it: active = inhibition above about 50%; inactive = the rest. The list comes from a sample in which actives are over-represented; it also holds close analogues and randomly drawn compounds.
Choose the fitting class; nothing outside y = active, n = inactive is accepted.

[[record]]
molecule = "NS(=O)(=O)c1ccc(NCc2c(F)cccc2Cl)cc1"
category = "n"

[[record]]
molecule = "Nc1cccc2cnccc12"
category = "y"

[[record]]
molecule = "c1ccc(-c2csc(Nc3ncccn3)n2)cc1"
category = "n"

[[record]]
molecule = "Oc1ccc(-c2csc(Nc3ncccn3)n2)cc1O"
category = "y"

[[record]]
molecule = "COc1cc(OC)cc(C(=O)NNC(=S)Nc2ccc(S(N)(=O)=O)cc2)c1"
category = "n"


What did this assay record as the result for CC1(C)CNc2cc(N)ccc2S1 ? y

Next: O=C(O)/C=C/C(=O)Nc1ccccc1C(=O)OCC(=O)c1ccc2c(c1)OCCO2 y

What do you have for Cc1nc2ccc(NC(=O)c3ccc(S(=O)(=O)N4CCOCC4)cc3)cc2s1 ? n

Same again, this time with O=S(=O)(Nc1ccc(N2CCCCC2)cc1)c1ccccc1 n

Do the same for O=C(COC(=O)c1ccccc1NC(=O)C1CC1)c1ccc2c(c1)OCCO2 please n

Thanks! And O=S(=O)(c1ccc2c(c1)oc1ccccc12)N1CCOCC1 ? n

For COc1ccc(-c2csc(Nc3ccc(C)cn3)n2)cc1OC then? n

Please give the result for N#Cc1cc(N)ccc1Sc1ccccc1 too. n

Now the same for O=c1c2ccccc2sn1-c1cc(S(=O)(=O)N2CCOCC2)ccc1N1CCOCC1 y

Do the same for O=C(O)c1cc(NCc2c(F)cccc2Cl)ccc1N1CCOCC1 please n

Proceed to Cc1noc(C)c1CSc1nc2cc(S(=O)(=O)N3CCOCC3)ccc2o1 y

Do the same for COc1ccc(C2c3c(oc4ccc(C)cc4c3=O)C(=O)N2c2cc(C)ccn2)cc1OC (configuration not stated) please n

Could you do the same for O=C(CCc1nc2ccccc2[nH]c1=O)OCC(=O)c1ccc(Cl)cc1 , please? n

Request: Cc1c(Br)c([N+](=O)[O-])nn1CC(=O)NCc1ccccn1 y

Can you check C=CCn1c(SCC(=O)Nc2nc(C)cs2)nnc1C(NC(=O)c1ccccc1)C(C)C (configuration not stated) next? n

Same question, NS(=O)(=O)c1ccc(NC(=S)NNC(=O)c2cccs2)cc1 this time y

Next record, please: NC(=S)Nc1cccc2cnccc12 n

And the next one, Cc1ccc(C(=O)CSc2nc3cc(S(=O)(=O)N4CCOCC4)ccc3o2)cc1 ? n

Request: CC(=O)c1cnn(-c2cc(Oc3cccc(C)c3)ncn2)c1C n
